Read-out: Cellular tumor antigen p53 (Homo sapiens)
protocol.details: LTEA_HepaRG_TP53: Life Technologies and Expression Analysis (LTEA) Assay for Tumor Protein P53 (TP53) using HepaRG (AID 2283537)
study.conditions: mRNA level, 48 h; actives raise or lower the signal
Active and inactive are the calls of the source. Rule for the calls: active = hit-call score of the fitted dose curve at least 0.9, where 1 is the maximum; inactive = score below 0.9.
The reply should name one outcome from active, inactive

Problem: Recorded test outcome, item Clc1ccc(Cl)cc1
Result: inactive

Problem: # outcome recorded in this test, key = Cc1cccc([N+](=O)[O-])c1
Result: inactive

Problem: // param item: Cc1ccccc1[N+](=O)[O-] ; yields the recorded call
Result: inactive

Problem: What was the test verdict on Oc1ccc(C(c2ccc(O)cc2)(C(F)(F)F)C(F)(F)F)cc1 ?
Result: active

Problem: // outcome(item) with item = N#Cc1ccc(N(CC(N)=O)CC(F)(F)F)cc1C(F)(F)F
Result: inactive

Problem: State the result this test recorded for CCC(C)c1cc([N+](=O)[O-])cc([N+](=O)[O-])c1O (stereo unspecified) .
Result: active

Problem: Just curious, what result did CCOCCOC(C)=O get here?
Result: inactive

Problem: Each molecule tested received a call. Report the one for CCOC(=O)C(O)(c1ccc(Cl)cc1)c1ccc(Cl)cc1 .
Result: inactive

Problem: Hey, what did the test say about O=C(O)C(F)(F)C(F)(F)C(F)(F)C(F)(F)C(F)(F)C(F)(F)C(F)(F)C(F)(F)F ?
Result: active

Problem: Please let me know the test result on file for Cc1ccccc1O .
Result: inactive

Problem: Assay result, entry C=CC(=O)NCNC(=O)C=C — outcome?
Result: inactive

Problem: What did the test return for C1CC2OC2CC1C1CO1 (stereo unspecified) ?
Result: inactive

Problem: How was c1ccc(-c2ccccc2)cc1 classified in this test?
Result: inactive

Problem: So what was the verdict on O=C(N[C@H]1CN2CCC1CC2)c1cc2ccoc2cn1 in this test?
Result: inactive

Problem: Write down the call the test reported for this molecule. Item: CCCCCCCCOC(=O)c1ccccc1C(=O)OCCCCCCCC
Result: inactive

Problem: I would be grateful if you could indicate the recorded call for CC(C)(c1ccccc1)c1ccc(O)cc1 .
Result: inactive

Problem: I would be grateful if you could indicate the recorded call for O=C(O)C(F)(F)C(F)(F)C(F)(F)C(F)(F)C(F)(F)F .
Result: inactive

Problem: Just curious, what result did CCCN(CCC)N=O get here?
Result: inactive

Problem: Fill in: this test's call for CCC(=O)O[C@H]1CC[C@H]2[C@@H]3CCC4=CC(=O)CC[C@]4(C)[C@H]3CC[C@]12C is ___
Result: inactive

Problem: Query: recorded result category for Oc1c(Cl)c(Cl)c(Cl)c(Cl)c1Cl in this test
Result: active

Problem: Record request — test call for ClC1=C(Cl)[C@]2(Cl)[C@@H]3[C@@H]4C[C@@H]([C@H]5O[C@@H]45)[C@@H]3[C@@]1(Cl)C2(Cl)Cl
Result: inactive

Problem: Identify the outcome logged in this assay for the molecule shown: O=S(=O)(O)C(F)(F)C(F)(F)C(F)(F)C(F)(F)F
Result: inactive

Problem: Hi team, can someone confirm the assay call for C[C@]12CCC(=O)C=C1CC[C@@H]1[C@@H]2CC[C@@]2(C)[C@H]1CC[C@]2(C)O ?
Result: inactive

Problem: Assay outcome for COS(=O)(=O)OC : what was it?
Result: inactive

Problem: Please share the test call associated with CCCCCCOC(=O)c1ccccc1C(=O)OCCCCCC .
Result: inactive

Problem: Hey, what did the test say about COc1ccc(O)c(C(C)(C)C)c1 ?
Result: inactive

###

Read-out: sulfotransferase 2A1 (SULT2A1), SULT2A1 (gene 6822)
protocol.details: LTEA_HepaRG_SULT2A1: Life Technologies and Expression Analysis (LTEA) Assay for sulfotransferase 2A1 (SULT2A1) using HepaRG (AID 2283531)
study.conditions: mRNA level, 48 h; actives raise or lower the signal
Method: LTEA_HepaRG is a cell based, multiplexed-readout assay that uses HepaRG, a human liver cell line, with measurements taken at 48 hours after chemical dosing on a 96-well plate.LTEA_HepaRG_SULT2A1 is one of 102 assay component(s) measured in the LTEA HepaRG cell culture assay. It is a marker of NR mediated transport.Data from the assay component LTEA_HepaRG_SULT2A1 was analyzed into 1 endpoint. […]
Calls of active or inactive are those of the source. The calls were made as follows: active = hit-call score of the fitted dose curve at least 0.9, where 1 is the maximum; inactive = score below 0.9.
Can you answer with just one of these options? active, inactive

Problem: Outcome? C=CC(N)=O
Result: inactive

Problem: Field: outcome | Entry: ClC(Cl)=C(c1ccc(Cl)cc1)c1ccc(Cl)cc1
Result: active

Problem: // return assay outcome for O=S(=O)(O)C(F)(F)C(F)(F)C(F)(F)C(F)(F)F
Result: inactive

Problem: # lookup: test call for Clc1ccc(C(c2ccccc2Cl)C(Cl)(Cl)Cl)cc1 (stereo unspecified)
Result: inactive

Problem: Outcome logged for CN(C)c1nc(=O)n(C2CCCCC2)c(=O)n1C in this assay:
Result: inactive

Problem: Any idea what this test logged for O=C(N[C@H]1CN2CCC1CC2)c1cc2ccoc2cn1 ?
Result: inactive

Problem: Dear all, I need the recorded test outcome for CCC(C)c1cc([N+](=O)[O-])cc([N+](=O)[O-])c1O (stereo unspecified) , thank you.
Result: active

Problem: Short answer needed: outcome of this test for CCCCCCOC(=O)c1ccccc1C(=O)OCCCCCC ?
Result: inactive

Problem: Which result was noted for this compound in the test: CC(C)(O)C(=O)Nc1ccc([N+](=O)[O-])c(C(F)(F)F)c1
Result: inactive

Problem: Identify the outcome logged in this assay for the compound shown: Cc1ccccc1CO[C@@H]1C[C@@]2(C(C)C)CC[C@]1(C)O2
Result: inactive

Problem: For this compound, state the assay outcome: CCOCCOC(C)=O
Result: inactive

Problem: What classification did CCCN(CCC)N=O end up with in this test?
Result: inactive

Problem: Status in this test for Cc1ccccc1O ?
Result: inactive

Problem: How did this test come out for O=C(O)C(F)(F)C(F)(F)C(F)(F)C(F)(F)C(F)(F)C(F)(F)C(F)(F)C(F)(F)C(F)(F)F ?
Result: active

Problem: // param item: Cc1ccccc1[N+](=O)[O-] ; yields the recorded call
Result: inactive

Problem: // param item: O=C(O)C(F)(F)C(F)(F)C(F)(F)C(F)(F)C(F)(F)F ; yields the recorded call
Result: inactive

Problem: So what was the verdict on Oc1c(Cl)c(Cl)c(Cl)c(Cl)c1Cl in this test?
Result: active

Problem: Record request — test call for CCCCCCCCOC(=O)c1ccccc1C(=O)OCCCCCCCC
Result: inactive

Problem: State the result this test recorded for CCCCCCCCCC[N+](C)(C)CCCCCCCCCC .
Result: active

Problem: Outcome? O=C(NC(=O)c1c(F)cccc1F)Nc1cc(Cl)c(OC(F)(F)C(F)F)c(Cl)c1
Result: inactive

Problem: Per the records of this test, what outcome belongs to CCNc1nc(NC(C)C)nc(SC)n1 ?
Result: inactive

Problem: Could you kindly confirm the outcome this assay logged for CCCCCCCCCc1ccc(O)cc1 ?
Result: inactive

Problem: # lookup: test call for O=C(O)C(F)(F)C(F)(F)C(F)(F)C(F)(F)C(F)(F)C(F)(F)C(F)(F)C(F)(F)F
Result: active

Problem: What outcome does the record of this test show for CCC(=O)O[C@H]1CC[C@H]2[C@@H]3CCC4=CC(=O)CC[C@]4(C)[C@H]3CC[C@]12C ?
Result: inactive

Problem: Kindly provide the recorded test outcome for the following compound: Clc1ccc(Cl)cc1
Result: inactive

Problem: What outcome does the record of this test show for CC(c1ccc(O)cc1)(c1ccc(O)cc1)c1ccc(O)cc1 ?
Result: active

###

protocol.details: ATG_Oct_MLP_CIS: Attagene CIS-FACTORIAL HepG2 Assay for human Octamer-Binding Transcription Factor (Oct) (AID 2282993)
study.conditions: HepG2 Attagene cis-factorial Oct reporter, mRNA; actives raise or lower the signal
The source made the active and inactive calls. How the source made its calls: active means hit-call score of the fitted dose curve at least 0.9, where 1 is the maximum; inactive means score below 0.9.
Parameter call: string, one of 1 (active), 0 (inactive)

Problem: Which outcome was entered for the compound CN(C)c1nc(=O)n(C2CCCCC2)c(=O)n1C in this test?
Result: 0

Problem: I'd appreciate the recorded outcome for Cc1ccccc1CO[C@@H]1C[C@@]2(C(C)C)CC[C@]1(C)O2 from this test.
Result: 0

Problem: Called result for CCCCCCCCCc1ccc(O)cc1
Result: 0

Problem: In this assay, the call recorded for O=C(O)C(F)(F)C(F)(F)C(F)(F)C(F)(F)C(F)(F)F was what?
Result: 0

Problem: Tell me the assay call for CCCCCCOC(=O)c1ccccc1C(=O)OCCCCCC please.
Result: 0

Problem: Hi team, can someone confirm the assay call for C=CC(=O)NCNC(=O)C=C ?
Result: 0

Problem: Please state the recorded outcome for this compound: Cc1cccc([N+](=O)[O-])c1
Result: 0

Problem: // outcome(item) with item = c1cc2ccc3cccc4ccc(c1)c2c34
Result: 0

Problem: Each compound tested received a call. Report the one for Nn1cnnc1 .
Result: 0

Problem: I would be grateful if you could indicate the recorded call for Cc1ccccc1[N+](=O)[O-] .
Result: 0

Problem: Just curious, what result did O=NN(c1ccccc1)c1ccccc1 get here?
Result: 0

Problem: How did this test come out for O=C(N[C@H]1CN2CCC1CC2)c1cc2ccoc2cn1 ?
Result: 0

Problem: GET /call?item= Cc1cc2c3c(c1)C(c1ccccc1)=N[C@@H](NC(=O)c1ccncc1)C(=O)N3CC2 returns the recorded outcome of this test.
Result: 1

Problem: Status in this test for CCSC(=O)N(CC)C1CCCCC1 ?
Result: 0

Problem: Call for entry Cc1cc(O)ccc1Cl :
Result: 0

Problem: // return assay outcome for CCOC(=O)C(O)(c1ccc(Cl)cc1)c1ccc(Cl)cc1
Result: 0

Problem: Given O=C(NC(=O)c1c(F)cccc1F)Nc1cc(Cl)c(OC(F)(F)C(F)F)c(Cl)c1 , state the outcome it received in this test.
Result: 0

Problem: Identify the outcome logged in this assay for the compound shown: Clc1ccc(Cl)cc1
Result: 0

Problem: Per the assay record, what outcome was assigned to Cc1cccc(C)c1N ?
Result: 0

Problem: Name the outcome recorded for CC(c1ccc(O)cc1)(c1ccc(O)cc1)c1ccc(O)cc1 in the assay.
Result: 1

Problem: Recorded call for C1CC2OC2CC1C1CO1 (stereo not drawn) ?
Result: 0

Problem: Any idea what this test logged for Clc1ccc(C(Cl)(Cl)Cl)cc1 ?
Result: 0

Problem: // return assay outcome for CCNc1nc(NC(C)C)nc(SC)n1
Result: 0

Problem: Returns: the outcome recorded for C[C@]12CCC(=O)C=C1CC[C@@H]1[C@@H]2CC[C@]2(C)C(=O)CC[C@@H]12 in this assay.
Result: 0

Problem: Dear colleague, could you share the recorded outcome for CCC(C)(CC)c1cc(NC(=O)c2c(OC)cccc2OC)on1 when you have a moment?
Result: 1

Problem: For OCC(O)CO , what call appears in the results of this test?
Result: 0

Problem: Check the results log: what was the call for c1ccc(-c2ccccc2)cc1 ?
Result: 0

Problem: Recorded test call requested for CO/C=C(/C(=O)OC)c1ccccc1COc1cccc(C(F)(F)F)n1
Result: 1

Where do these numbers come from? They come from PubChem BioAssay (EPA / NIEHS).
